Quick list: Hemolysis rate (%) per entry.
Tested on: human erythrocytes
Assay: Hemolytic activity assay
Assay type: cell-based
Details: 128 μM; human RBC in PB, 37°C, 1 h; OD420; total lysis control 0.1% SDS; three technical replicates
Where a SMILES comes first, the peptide text is derived from it. [ ]: non-standard residue; d: D form. hArg = N=C(N)NCCCC[C@H](N)C(=O)O; 2Thi = N[C@@H](Cc1cccs1)C(=O)O
Test Readout: Hemolysis rate (%)

CC(C)C[C@H](NC(=O)[C@H](CC(C)C)NC(=O)[C@@H](CCCCN)NC(=O)[C@@H](CCCCN)NC(=O)[C@H](Cc1ccccc1)NC(=O)[C@H](CC(C)C)NC(=O)[C@@H](CCCNC(=N)N)NC(=O)[C@H](N)CCCCN)C(=O)N[C@H](CCCCN)C(=O)N[C@@H](Cc1ccc(O)cc1)C(=O)N[C@@H](CC(C)C)C(=O)N[C@H](CCCNC(=N)N)C(=O)N[C@H](CCCCN)C(=O)N[C@@H](Cc1ccccc1)C(N)=O [DP06] (H-[dK][dR]LF[dK][dK]LL[dK]YL[dR][dK]F-NH2) :: 59.99
CC(C)C[C@H](NC(=O)[C@H](Cc1ccc(O)cc1)NC(=O)[C@H](CCCCN)NC(=O)[C@H](CC(C)C)NC(=O)[C@H](CC(C)C)NC(=O)[C@H](CCCCN)NC(=O)[C@H](CCCCN)NC(=O)[C@H](Cc1ccccc1)NC(=O)[C@H](CC(C)C)NC(=O)[C@H](CCCNC(=N)N)NC(=O)[C@@H](N)CCCCNC(=N)N)C(=O)N[C@@H](CCCNC(=N)N)C(=O)N[C@@H](CCCCN)C(=O)N[C@@H](Cc1cccs1)C(N)=O [UP10] (H-[hArg]RLFKKLLKYLRK[2Thi]-NH2) :: 95.02
